Test system: Escherichia coli TOP10
Test: shrunken log2 fold change of peptide-encoding DNA abundance (4.5 h post-induction vs induction); higher = less antimicrobial activity (less host growth inhibition)
Settings: time post-induction: 4.5 h; library: site-saturation at positions 5, 18, 19, 20
quantity: shrunken log2 fold change
Reply with the value as a number alone.

Please review the following examples before continuing.
1) RRIRARPPRLPRPRPRPTEEPRP -0.082
2) RRIRPRPPRLPRPRPRPTVYPRP -0.296
3) RRIRSRPPRLPRPRPRPYGNPRP -0.621
4) RRIRTRPPRLPRPRPRPQHWPRP 0.08
5) RRIRCRPPRLPRPRPRPKVHPRP -0.0287
6) RRIRERPPRLPRPRPRPQVYPRP -0.023
7) RRIRNRPPRLPRPRPRPQSVPRP -0.0373
8) RRIRTRPPRLPRPRPRPADYPRP -0.226

Record `RRIRARPPRLPRPRPRPNPKPRP` : what is its shrunken log2 fold change with Escherichia coli TOP10?
0.372

Record `RRIRCRPPRLPRPRPRPAWNPRP` : what is its shrunken log2 fold change with Escherichia coli TOP10?
0.035

Record `RRIRMRPPRLPRPRPRPNDEPRP` : what is its shrunken log2 fold change with Escherichia coli TOP10?
0.699

Record `RRIRQRPPRLPRPRPRPLYKPRP` : what is its shrunken log2 fold change with Escherichia coli TOP10?
-1.34

Record `RRIRKRPPRLPRPRPRPMRHPRP` : what is its shrunken log2 fold change with Escherichia coli TOP10?
0.0303

Record `RRIRQRPPRLPRPRPRPHYRPRP` : what is its shrunken log2 fold change with Escherichia coli TOP10?
-0.0839

Record `RRIRHRPPRLPRPRPRPYMPPRP` : what is its shrunken log2 fold change with Escherichia coli TOP10?
-0.402

Record `RRIRFRPPRLPRPRPRPPEFPRP` : what is its shrunken log2 fold change with Escherichia coli TOP10?
0.12

Record `RRIRMRPPRLPRPRPRPCRSPRP` : what is its shrunken log2 fold change with Escherichia coli TOP10?
0.0369

Record `RRIRWRPPRLPRPRPRPNFTPRP` : what is its shrunken log2 fold change with Escherichia coli TOP10?
-0.0319

Record `RRIRDRPPRLPRPRPRPWIWPRP` : what is its shrunken log2 fold change with Escherichia coli TOP10?
0.188

Record `RRIRGRPPRLPRPRPRPCNGPRP` : what is its shrunken log2 fold change with Escherichia coli TOP10?
-0.199

Record `RRIRARPPRLPRPRPRPGNPPRP` : what is its shrunken log2 fold change with Escherichia coli TOP10?
0.167

Record `RRIRVRPPRLPRPRPRPQSAPRP` : what is its shrunken log2 fold change with Escherichia coli TOP10?
-0.054

Record `RRIRFRPPRLPRPRPRPCLWPRP` : what is its shrunken log2 fold change with Escherichia coli TOP10?
-0.0174

Record `RRIRYRPPRLPRPRPRPTDKPRP` : what is its shrunken log2 fold change with Escherichia coli TOP10?
-0.347

Record `RRIRLRPPRLPRPRPRPDTAPRP` : what is its shrunken log2 fold change with Escherichia coli TOP10?
0.0121

Record `RRIRERPPRLPRPRPRPHSMPRP` : what is its shrunken log2 fold change with Escherichia coli TOP10?
-0.126

====

Test system: Escherichia coli TOP10;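 further: peptides expressed intracellularly from a pBAD plasmid library in pooled LB shake-flask culture, induced with 0.3% L-arabinose, DNA abundance read by NGS, three biological replicates, DESeq2 with apeglm shrinkage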
Test: shrunken log2 fold change of peptide-encoding DNA abundance (4.5 h post-induction vs induction); higher = less antimicrobial activity (less host growth inhibition)
Conditions: time post-induction: 4.5 h; library: site-saturation at positions 5, 18, 19, 20
quantity: shrunken log2 fold change

1) RRIRDRPPRLPRPRPRPPVRPRP 0.0542

What value of measured shrunken log2 fold change is listed for `RRIRFRPPRLPRPRPRPKPIPRP` ?
0.0634

What value of measured shrunken log2 fold change is listed for `RRIRDRPPRLPRPRPRPQYYPRP` ?
0.003

What value of measured shrunken log2 fold change is listed for `RRIRHRPPRLPRPRPRPIAGPRP` ?
0.0113

What value of measured shrunken log2 fold change is listed for `RRIRGRPPRLPRPRPRPPMNPRP` ?
0.464
